Tested system: T1, human CCR8 (human, UniProt P51685 1-355)
T1 construct: Native CCR8 on human PBMC (CCR8+ CD3+ or CCR8+ CD4+ lymphocytes); also called chemokine (C-C motif) receptor 8
T1 sequence (P51685 whole entry): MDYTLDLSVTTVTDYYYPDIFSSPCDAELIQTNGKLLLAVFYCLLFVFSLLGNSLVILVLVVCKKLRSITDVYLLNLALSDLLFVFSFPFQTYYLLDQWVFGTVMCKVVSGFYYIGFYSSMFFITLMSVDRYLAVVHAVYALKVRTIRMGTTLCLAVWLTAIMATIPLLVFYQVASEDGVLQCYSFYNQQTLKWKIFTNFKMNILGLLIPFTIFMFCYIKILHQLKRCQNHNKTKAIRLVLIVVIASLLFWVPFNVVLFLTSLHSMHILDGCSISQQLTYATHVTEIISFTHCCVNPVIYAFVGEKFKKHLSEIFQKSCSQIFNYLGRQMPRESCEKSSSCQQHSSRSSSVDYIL
Experiment summary: flow blocking, PBMC CCR8+CD4+; competitor PE-AB6
Observable: % Positive cells

Below are some binders; for each one, tell me its % Positive cells.
1. AB2 (antibody, V domains shown, Hybridoma monoclonal; Same VH/VL entries as AB1; also called antibody 2; clone 2) VH: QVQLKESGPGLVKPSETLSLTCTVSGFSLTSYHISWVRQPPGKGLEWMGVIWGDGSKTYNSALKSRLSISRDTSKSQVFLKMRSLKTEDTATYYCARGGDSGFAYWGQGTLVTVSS VL: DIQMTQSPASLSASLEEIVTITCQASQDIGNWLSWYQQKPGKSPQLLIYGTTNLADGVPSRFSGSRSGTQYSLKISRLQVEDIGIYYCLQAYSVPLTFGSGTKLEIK
2. AB4 (antibody, V domains shown, Hybridoma monoclonal; also called antibody 4; clone 4) VH: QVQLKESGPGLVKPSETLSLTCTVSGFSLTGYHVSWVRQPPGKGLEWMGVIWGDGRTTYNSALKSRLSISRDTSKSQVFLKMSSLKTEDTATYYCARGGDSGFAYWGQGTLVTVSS VL: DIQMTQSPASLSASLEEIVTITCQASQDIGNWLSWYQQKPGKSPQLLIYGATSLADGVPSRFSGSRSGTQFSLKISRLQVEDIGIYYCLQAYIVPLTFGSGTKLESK
3. AB12 (antibody, V domains shown, Hybridoma monoclonal; also called antibody 12; clone 12) VH: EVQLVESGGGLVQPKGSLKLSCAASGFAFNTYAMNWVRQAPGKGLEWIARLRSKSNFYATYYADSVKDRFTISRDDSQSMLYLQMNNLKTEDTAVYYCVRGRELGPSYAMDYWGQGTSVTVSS VL: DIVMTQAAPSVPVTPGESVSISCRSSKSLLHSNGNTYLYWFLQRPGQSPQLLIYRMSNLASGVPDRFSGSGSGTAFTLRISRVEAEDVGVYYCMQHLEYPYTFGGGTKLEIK
4. AB15 (antibody, V domains shown, Hybridoma monoclonal; Same VH/VL entries as AB14; also called antibody 15; clone 15) VH: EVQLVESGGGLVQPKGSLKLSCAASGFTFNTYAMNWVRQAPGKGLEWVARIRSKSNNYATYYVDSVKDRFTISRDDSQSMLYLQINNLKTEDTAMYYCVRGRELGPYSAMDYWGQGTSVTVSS VL: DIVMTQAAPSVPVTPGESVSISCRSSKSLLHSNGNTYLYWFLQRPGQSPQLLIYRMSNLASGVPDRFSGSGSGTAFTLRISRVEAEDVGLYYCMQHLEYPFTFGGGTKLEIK
5. AB5 (antibody, V domains shown, Hybridoma monoclonal; Same VH/VL entries as AB6; also called antibody 5; clone 5) VH: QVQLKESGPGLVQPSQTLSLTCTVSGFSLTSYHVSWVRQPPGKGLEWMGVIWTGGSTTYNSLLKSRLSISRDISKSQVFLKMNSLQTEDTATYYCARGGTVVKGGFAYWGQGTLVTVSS VL: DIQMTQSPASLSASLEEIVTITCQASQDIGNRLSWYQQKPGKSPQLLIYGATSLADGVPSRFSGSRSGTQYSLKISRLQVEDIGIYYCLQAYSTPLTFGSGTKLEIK
6. AB1 (antibody, V domains shown, Hybridoma monoclonal (mouse or rat); Same VH/VL entries as AB2; also called antibody 1; clone 1) VH: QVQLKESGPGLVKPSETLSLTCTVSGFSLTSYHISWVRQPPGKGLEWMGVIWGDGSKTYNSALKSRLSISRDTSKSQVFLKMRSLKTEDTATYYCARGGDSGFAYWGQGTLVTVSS VL: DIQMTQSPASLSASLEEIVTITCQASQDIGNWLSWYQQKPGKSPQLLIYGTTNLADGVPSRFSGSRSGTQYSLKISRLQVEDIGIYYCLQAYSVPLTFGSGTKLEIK
7. AB3 (antibody, V domains shown, Hybridoma monoclonal; also called antibody 3; clone 3) VH: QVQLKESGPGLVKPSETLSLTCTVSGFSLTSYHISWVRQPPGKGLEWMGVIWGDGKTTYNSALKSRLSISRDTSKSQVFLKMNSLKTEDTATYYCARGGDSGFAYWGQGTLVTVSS VL: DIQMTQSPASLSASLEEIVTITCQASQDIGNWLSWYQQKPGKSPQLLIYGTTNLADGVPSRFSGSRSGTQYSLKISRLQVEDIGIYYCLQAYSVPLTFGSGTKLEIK

0.13%
0.26%
2.33%
2.5%
0.09%
0.27%
0.31%

# batch size: 4; output % Positive cells per entry
1. AB13 (antibody, V domains shown, Hybridoma monoclonal; also called antibody 13; clone 13) VH: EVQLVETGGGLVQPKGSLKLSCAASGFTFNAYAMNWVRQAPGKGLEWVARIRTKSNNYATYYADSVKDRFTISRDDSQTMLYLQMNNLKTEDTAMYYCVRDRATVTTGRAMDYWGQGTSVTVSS VL: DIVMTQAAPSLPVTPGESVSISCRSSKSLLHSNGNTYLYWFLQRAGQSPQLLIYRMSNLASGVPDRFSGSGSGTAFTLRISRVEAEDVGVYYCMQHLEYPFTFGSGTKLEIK
2. AB10 (antibody, V domains shown, Hybridoma monoclonal; also called antibody 10; clone 10) VH: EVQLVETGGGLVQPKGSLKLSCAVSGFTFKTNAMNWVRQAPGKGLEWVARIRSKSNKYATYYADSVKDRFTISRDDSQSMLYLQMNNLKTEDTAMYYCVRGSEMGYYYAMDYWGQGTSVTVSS VL: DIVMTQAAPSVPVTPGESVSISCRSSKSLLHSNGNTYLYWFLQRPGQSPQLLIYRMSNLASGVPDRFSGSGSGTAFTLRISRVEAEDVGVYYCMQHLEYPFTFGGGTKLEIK
3. AB8 (antibody, V domains shown, Hybridoma monoclonal; also called antibody 8; clone 8) VH: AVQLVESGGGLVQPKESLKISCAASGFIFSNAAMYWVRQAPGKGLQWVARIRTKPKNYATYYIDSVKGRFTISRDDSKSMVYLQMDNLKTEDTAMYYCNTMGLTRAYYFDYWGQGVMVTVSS VL: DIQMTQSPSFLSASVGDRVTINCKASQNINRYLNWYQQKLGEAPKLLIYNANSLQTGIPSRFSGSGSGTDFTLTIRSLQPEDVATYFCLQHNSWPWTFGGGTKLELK
4. AB14 (antibody, V domains shown, Hybridoma monoclonal; Same VH/VL entries as AB15; also called antibody 14; clone 14) VH: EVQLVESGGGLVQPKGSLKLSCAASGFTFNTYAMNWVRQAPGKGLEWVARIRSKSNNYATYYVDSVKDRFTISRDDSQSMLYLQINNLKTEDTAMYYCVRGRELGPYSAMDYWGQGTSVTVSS VL: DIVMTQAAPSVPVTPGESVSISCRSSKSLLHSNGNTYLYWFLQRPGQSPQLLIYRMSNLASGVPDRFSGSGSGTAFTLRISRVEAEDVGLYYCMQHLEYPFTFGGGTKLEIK

1: 1.99%; 2: 2.18%; 3: 2.31%; 4: 2.09%

The reported numbers originate from patent US20240360228A1.
